- System: biotinyl-Phe-oxazolone
- protocol details: self-aminoacylation, catalytic enhancement (BFO) (fold over background); higher = more active; k-Seq, kA / k0A0; sequences stand for … in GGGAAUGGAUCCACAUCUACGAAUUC…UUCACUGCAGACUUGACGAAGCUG
This sample holds only a part of the variants without activity.
Parameter self-aminoacylation: see the listing below.
observation type: self-aminoacylation

item sequence: AUUCACCGAUGUCAUCGGGUG [Fam2.2 aminoacylation ribozyme variant]
subject of test: biotinyl-Phe-oxazolone
observation type: self-aminoacylation
meas value: 62.7

item sequence: CUACUUAAAACAAUCGGUUUG [Fam1A.1 aminoacylation ribozyme variant]
subject of test: biotinyl-Phe-oxazolone
observation type: self-aminoacylation
meas value: 0.655

item sequence: CUAUAUCAAACAAUCGGUCUG [Fam1A.1 aminoacylation ribozyme variant]
subject of test: biotinyl-Phe-oxazolone
observation type: self-aminoacylation
meas value: 1.62

item sequence: AGUCACCUAUGUCAUCGGGUG [Fam2.2 aminoacylation ribozyme variant]
subject of test: biotinyl-Phe-oxazolone
observation type: self-aminoacylation
meas value: 31.8

item sequence: AAGUAUGCUAAUAGUCGCGAG [Fam3.1 aminoacylation ribozyme variant]
subject of test: biotinyl-Phe-oxazolone
observation type: self-aminoacylation
meas value: 5.66

item sequence: CCUCACCUCAAGCAAUCGGUC [Fam1B.1 aminoacylation ribozyme variant]
subject of test: biotinyl-Phe-oxazolone
observation type: self-aminoacylation
meas value: 4.38

item sequence: CUACACUUCAAGCAAUCGGUU [Fam1B.1 aminoacylation ribozyme variant]
subject of test: biotinyl-Phe-oxazolone
observation type: self-aminoacylation
meas value: 9.78

item sequence: AUUCACCUGGGUCAUCGGUUG [Fam2.2 aminoacylation ribozyme variant]
subject of test: biotinyl-Phe-oxazolone
observation type: self-aminoacylation
meas value: 3.76

item sequence: CCACACUGCCAGCAAUCGGUC [Fam1B.1 aminoacylation ribozyme variant]
subject of test: biotinyl-Phe-oxazolone
observation type: self-aminoacylation
meas value: 2.23

item sequence: AAGGUUGCUAAUUGUCGCAAG [Fam3.1 aminoacylation ribozyme variant]
subject of test: biotinyl-Phe-oxazolone
observation type: self-aminoacylation
meas value: 1.4

item sequence: AAGUUUUCUAAGAGUCGCAAG [Fam3.1 aminoacylation ribozyme variant]
subject of test: biotinyl-Phe-oxazolone
observation type: self-aminoacylation
meas value: 3.16

item sequence: AUUCACUUAGGUCAUCGUGUG [Fam2.2 aminoacylation ribozyme variant]
subject of test: biotinyl-Phe-oxazolone
observation type: self-aminoacylation
meas value: 0.821

item sequence: AUUCACCAAGGGCAUCGGGUG [Fam2.2 aminoacylation ribozyme variant]
subject of test: biotinyl-Phe-oxazolone
observation type: self-aminoacylation
meas value: 35.1

item sequence: CCACACUUCAAACAAUCGCUC [Fam1B.1 aminoacylation ribozyme variant]
subject of test: biotinyl-Phe-oxazolone
observation type: self-aminoacylation
meas value: 1.32

item sequence: AAGUUUGCAAAUAGUCGCAAG [Fam3.1 aminoacylation ribozyme variant]
subject of test: biotinyl-Phe-oxazolone
observation type: self-aminoacylation
meas value: 1.03

item sequence: AAGUUCGCUAAUAGUCGUAAG [Fam3.1 aminoacylation ribozyme variant]
subject of test: biotinyl-Phe-oxazolone
observation type: self-aminoacylation
meas value: 13.7

item sequence: AUUCACCUAGGUCACCGAGUG [Fam2.2 aminoacylation ribozyme variant]
subject of test: biotinyl-Phe-oxazolone
observation type: self-aminoacylation
meas value: 14.4

item sequence: CUUACCCUGGUCCUCGAGUGA [Fam2.1 aminoacylation ribozyme variant]
subject of test: biotinyl-Phe-oxazolone
observation type: self-aminoacylation
meas value: 28.8

* * *

- Tested on: biotinyl-Leu-oxazolone
- protocol details: self-aminoacylation, catalytic enhancement (BLO) (fold over background); higher = more active; k-Seq, kA / k0A0; sequences stand for … in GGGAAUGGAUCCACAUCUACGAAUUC…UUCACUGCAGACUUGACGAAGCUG
Variants at the floor of the assay were thinned out.
Note to self: class labels come from recorded self-aminoacylation, ranges listed here: small value: < 1; mid value: ≥ 1 and < 5; large value: ≥ 5

item sequence: CUUCUUCAAACAACCGGUCUG [Fam1A.1 aminoacylation ribozyme variant]
class name: small value
//
item sequence: AUUACGCAGGUCAUCGAGUGA [Fam2.1 aminoacylation ribozyme variant]
class name: mid value
//
item sequence: AAGUUUGCUAAUAGUCAUAAG [Fam3.1 aminoacylation ribozyme variant]
class name: mid value
//
item sequence: AUUACCAUGGUCAUCGAGUGG [Fam2.1 aminoacylation ribozyme variant]
class name: mid value
//
item sequence: AUUCACCUAGGUCAUCGCUUG [Fam2.2 aminoacylation ribozyme variant]
class name: mid value
//
item sequence: CUACUUCAUACAAUCGGUUUG [Fam1A.1 aminoacylation ribozyme variant]
class name: small value
//
item sequence: CUAUUUCAAACAAACGGUCUG [Fam1A.1 aminoacylation ribozyme variant]
class name: small value
//
item sequence: AUUUCCCUGGUCAUCGCGUGA [Fam2.1 aminoacylation ribozyme variant]
class name: large value
//
item sequence: AUUCACCUACGUCGUCGGGUG [Fam2.2 aminoacylation ribozyme variant]
class name: mid value
//
item sequence: AUGACCCUGGUUAUCGAGUGA [Fam2.1 aminoacylation ribozyme variant]
class name: large value
//
item sequence: AUCCACCUAGGUCUUCGGGUG [Fam2.2 aminoacylation ribozyme variant]
class name: large value
//
item sequence: CCACAUUUCAAGGAAUCGGUC [Fam1B.1 aminoacylation ribozyme variant]
class name: mid value
//
item sequence: CCACACUUCAAGCAAUCGGUG [Fam1B.1 aminoacylation ribozyme variant]
class name: large value
//
item sequence: CUACUUCGAACAAGCGGUCUG [Fam1A.1 aminoacylation ribozyme variant]
class name: small value
//
item sequence: AUUACCCUGGUCAUAGAGUUA [Fam2.1 aminoacylation ribozyme variant]
class name: small value
//
item sequence: AUACACCCAGGUCAUCGGGUG [Fam2.2 aminoacylation ribozyme variant]
class name: mid value

* * *

- System: biotinyl-Ile-oxazolone
- protocol details: self-aminoacylation, catalytic enhancement (BIO) (fold over background); higher = more active; k-Seq, kA / k0A0; sequences stand for … in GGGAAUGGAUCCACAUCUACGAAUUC…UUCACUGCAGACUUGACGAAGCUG
Variants at the floor of the assay were thinned out.
Parameter self-aminoacylation: see the listing below.

item sequence: AUUACCCUGGUCAGCGAAUGA [Fam2.1 aminoacylation ribozyme variant]
subject of test: biotinyl-Ile-oxazolone
self-aminoacylation: 1.05

item sequence: CUACUUCAAACAAACGGACUG [Fam1A.1 aminoacylation ribozyme variant]
subject of test: biotinyl-Ile-oxazolone
self-aminoacylation: 0.684

item sequence: CUACUUUCAACAAUCGGUCUG [Fam1A.1 aminoacylation ribozyme variant]
subject of test: biotinyl-Ile-oxazolone
self-aminoacylation: 0.99

item sequence: CCACACUUCAAGCUAUAGGUC [Fam1B.1 aminoacylation ribozyme variant]
subject of test: biotinyl-Ile-oxazolone
self-aminoacylation: 0.613

item sequence: CCACACUUCAAGUAAUGGGUC [Fam1B.1 aminoacylation ribozyme variant]
subject of test: biotinyl-Ile-oxazolone
self-aminoacylation: 0.868

item sequence: CUUCACCUAGGUCAUCCGGUG [Fam2.2 aminoacylation ribozyme variant]
subject of test: biotinyl-Ile-oxazolone
self-aminoacylation: 5.77

item sequence: AUUAACCUAGGUCCUCGGGUG [Fam2.2 aminoacylation ribozyme variant]
subject of test: biotinyl-Ile-oxazolone
self-aminoacylation: 2.58

item sequence: CUACUUCUAACAAUCGGUCUG [Fam1A.1 aminoacylation ribozyme variant]
subject of test: biotinyl-Ile-oxazolone
self-aminoacylation: 0.658

item sequence: AUUACCCUGGGUAUCGAGUGA [Fam2.1 aminoacylation ribozyme variant]
subject of test: biotinyl-Ile-oxazolone
self-aminoacylation: 4.51

item sequence: AAUUUUGCUUAUAGUCGCAAG [Fam3.1 aminoacylation ribozyme variant]
subject of test: biotinyl-Ile-oxazolone
self-aminoacylation: 2.39

item sequence: AAGUUUGCUAAUCUUCGCAAG [Fam3.1 aminoacylation ribozyme variant]
subject of test: biotinyl-Ile-oxazolone
self-aminoacylation: 1.11

item sequence: UUCACCCUGGUCAUCGAGUGA [Fam2.1 aminoacylation ribozyme variant]
subject of test: biotinyl-Ile-oxazolone
self-aminoacylation: 5.88

item sequence: CCACACUUCAACCACUCGGUC [Fam1B.1 aminoacylation ribozyme variant]
subject of test: biotinyl-Ile-oxazolone
self-aminoacylation: 1.18

item sequence: ACACACCUCAAGCAAUCGGUC [Fam1B.1 aminoacylation ribozyme variant]
subject of test: biotinyl-Ile-oxazolone
self-aminoacylation: 0.848

item sequence: CCACACUUCAAGCUAUCGGUA [Fam1B.1 aminoacylation ribozyme variant]
subject of test: biotinyl-Ile-oxazolone
self-aminoacylation: 1.16

item sequence: AUGACCCUGGACAUCGAGUGA [Fam2.1 aminoacylation ribozyme variant]
subject of test: biotinyl-Ile-oxazolone
self-aminoacylation: 2.27

item sequence: AUUAACCUAGGGCAUCGGGUG [Fam2.2 aminoacylation ribozyme variant]
subject of test: biotinyl-Ile-oxazolone
self-aminoacylation: 2.45

item sequence: AUUUACCUAGGUCAUCGGGUG [Fam2.2 aminoacylation ribozyme variant]
subject of test: biotinyl-Ile-oxazolone
self-aminoacylation: 18.3

FYI, the data here is from the supplement of paper PMC9233669.
